- system: T1, rat GALR2 (Galanin receptor type 2) (rat, UniProt O08726 1-372)
- T1 construct: Expressed in CHO/dhfr- cells; The assays used the membrane fraction of these cells; also called GALR2 membrane fraction; GALR2 expressing cells
- T1 sequence: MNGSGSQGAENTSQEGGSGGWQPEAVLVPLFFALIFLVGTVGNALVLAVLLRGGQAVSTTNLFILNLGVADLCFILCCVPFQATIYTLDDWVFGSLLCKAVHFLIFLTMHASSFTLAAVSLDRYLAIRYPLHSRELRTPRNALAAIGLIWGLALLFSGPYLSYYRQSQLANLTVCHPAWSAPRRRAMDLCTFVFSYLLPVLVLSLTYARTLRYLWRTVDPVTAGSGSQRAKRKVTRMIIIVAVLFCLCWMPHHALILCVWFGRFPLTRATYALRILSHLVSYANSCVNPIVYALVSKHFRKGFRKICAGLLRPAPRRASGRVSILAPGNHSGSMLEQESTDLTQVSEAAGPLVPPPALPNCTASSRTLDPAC
- assaySummary: displacement of [125I]rat galanin from rat GALR2 CHO membrane fraction
reportedProperty: pIC50
A value of pIC50 is the negative decimal logarithm of a concentration given in moles per litre.

binder	pIC50
APVHRGRGGWTLNSAGYLLGPVLHPPSRAEGGGK (also called pig (1-34)) [pig-type ligand peptide (1-34)]	8.85

Challenge: Fill blank: measured pIC50 of the binder APVHRGRGGWTLNSAGYLLGPVLHPPSRAE (also called pig (1-30)) [pig-type ligand peptide (1-30)] is ____.
Response given: 8.85
